assay: toxicity in HEK-293 cells (EZ4U)
Type: cell-based, human
condition-set: human, HEK-293 cells; reference doxorubicin at 0.2 and 0.05 µM; 48 h incubation; read-out: HEK-293 cell viability
assay-endpoint: viability at 48 h

GET /value?item= COc1cccc2c1C(=O)c1c(O)c3c(c(O)c1C2=O)C[C@@](O)(C(=O)CO)C[C@@H]3O[C@H]1C[C@H](N)[C@H](O)[C@H](C)O1 [doxorubicin (DX), doxorubicin, reference compound] &field=viability at 48 h returns < 50%

====

Entries and their measured melting point follow.

CC(C)(C)c1ccc(OCCCN2CCCCCC2)cc1.O=C(O)C(=O)O [Compound 28]: 138 to 140 °C
CC(C)(C)c1ccc(OCCCCCN2CCCCC2)cc1.O=C(O)C(=O)O [Compound 7]: 170 to 172 °C

Now for the molecule whose melting point we want.
GET /value?item= CC1CCN(CCCCCCOc2ccc(C(C)(C)C)cc2)CC1.O=C(O)C(=O)O [Compound 27] &field=melting point returns 136 to 139 °C

====

assay-endpoint: melting point

Examples from the recorded data:
CC1CCCN(CCCOc2ccc(C(C)(C)C)cc2)C1.O=C(O)C(=O)O (centres unmarked) [Compound 12]: 141 to 143 °C
CC1CCCN(CCCCOc2ccc(C(C)(C)C)cc2)C1.O=C(O)C(=O)O (centres unmarked) [Compound 13]: 148 to 150 °C
CC1CC(C)CN(CCCCCOc2ccc(C(C)(C)C)cc2)C1.O=C(O)C(=O)O (centres unmarked) [Compound 22]: 175 to 178 °C
CC(C)(C)c1ccc(OCCCCCCN2CCCCCC2)cc1.O=C(O)C(=O)O [Compound 31]: 130 to 132 °C

Now for the compound whose melting point we want.
GET /value?item= CC1CCCN(CCCCCOc2ccc(C(C)(C)C)cc2)C1.O=C(O)C(=O)O (centres unmarked) [Compound 14] &field=melting point returns 179 to 181 °C

====

test-target: human histamine H3 receptor (hH3R) (Homo sapiens, UniProt Q9Y5N1)
Construct: expressed in transfected cells
Sequence (Q9Y5N1 whole entry): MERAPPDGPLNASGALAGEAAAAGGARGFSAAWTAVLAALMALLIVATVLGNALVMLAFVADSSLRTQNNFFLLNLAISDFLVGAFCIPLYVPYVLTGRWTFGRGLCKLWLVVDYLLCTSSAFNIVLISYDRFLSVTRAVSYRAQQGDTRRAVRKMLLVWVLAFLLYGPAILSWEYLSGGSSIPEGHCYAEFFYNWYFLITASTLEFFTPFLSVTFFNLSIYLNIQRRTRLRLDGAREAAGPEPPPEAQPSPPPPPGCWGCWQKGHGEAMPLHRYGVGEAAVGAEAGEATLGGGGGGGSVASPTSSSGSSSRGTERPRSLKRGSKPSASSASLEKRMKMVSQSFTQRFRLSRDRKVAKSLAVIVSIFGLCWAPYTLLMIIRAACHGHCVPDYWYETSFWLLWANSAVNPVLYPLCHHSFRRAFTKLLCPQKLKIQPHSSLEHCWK
assay: radioligand displacement binding assay, [3H]Nα-methylhistamine, HEK293 cells stably expressing hH3R
condition-set: HEK293 cells stably expressing human H3R, mean (95% CI)
Procedure: [^3H]N^α-methylhistamine was used as a radioligand. The radioligand displacement binding assay was carried out in HEK-293 cells stably expressing the recombinant hH3R as described by Kottke et al. with slight modifications. […] Obtained data from at least three experiments (in at least duplicates) were analyzed with GraphPad Prism 6.1 (San Diego, CA, USA) using nonlinear regression (one-site competition on logarithmic scale), and Ki values were transformed from IC50 according to Cheng-Prusoff. […]
Threshold 400 nM. Ki below it: t. Ki at it or above: f.

Worked examples, 2 compounds total:
CC1CCCN(CCCCCOc2ccc(C(C)(C)C)cc2)C1.O=C(O)C(=O)O (centres unmarked) [Compound 14]: t
CC1CCN(CCCCCOc2ccc(C(C)(C)C)cc2)CC1.O=C(O)C(=O)O [Compound 26]: f

For CC1CCCN(CCCCCCOc2ccc(C(C)(C)C)cc2)C1.O=C(O)C(=O)O (centres unmarked) [Compound 15] , is the recorded Ki below the cut-off of 400 nM? t

For CC1CC(C)CN(CCCCCCOc2ccc(C(C)(C)C)cc2)C1.O=C(O)C(=O)O (centres unmarked) [Compound 23] , is the recorded Ki below the cut-off of 400 nM? f

====

Entries and their measured melting point follow.

CC1CCCCN1CCCCCOc1ccc(C(C)(C)C)cc1.O=C(O)C(=O)O (stereo not drawn) [Compound 11]: 96 to 99 °C
CC1CCN(CCCCCOc2ccc(C(C)(C)C)cc2)CC1.O=C(O)C(=O)O [Compound 26]: 167 to 170 °C
CC1CC(C)CN(CCCCOc2ccc(C(C)(C)C)cc2)C1.O=C(O)C(=O)O (stereo not drawn) [Compound 21]: 170 to 172 °C

GET /value?item= CC(C)(C)c1ccc(OCCCCN2CCCCCC2)cc1.O=C(O)C(=O)O [Compound 29] &field=melting point returns 149 to 151 °C

====

test-target: hMAO B (Homo sapiens, UniProt P27338)
Construct: purchased Sigma Aldrich M7441
Sequence (P27338 whole entry): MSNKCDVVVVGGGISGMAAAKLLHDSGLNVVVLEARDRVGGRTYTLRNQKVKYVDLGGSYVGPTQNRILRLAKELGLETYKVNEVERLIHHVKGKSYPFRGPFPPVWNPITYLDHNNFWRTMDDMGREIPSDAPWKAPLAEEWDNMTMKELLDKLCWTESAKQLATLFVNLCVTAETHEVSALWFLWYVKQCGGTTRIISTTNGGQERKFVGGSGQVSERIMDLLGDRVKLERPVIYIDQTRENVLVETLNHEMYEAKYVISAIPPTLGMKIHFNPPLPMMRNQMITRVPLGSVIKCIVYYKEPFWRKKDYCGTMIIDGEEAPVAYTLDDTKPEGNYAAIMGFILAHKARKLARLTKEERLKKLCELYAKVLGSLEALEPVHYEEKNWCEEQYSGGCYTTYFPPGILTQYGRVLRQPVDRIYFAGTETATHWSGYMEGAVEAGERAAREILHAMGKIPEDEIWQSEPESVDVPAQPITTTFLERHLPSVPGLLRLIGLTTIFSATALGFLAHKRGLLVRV
assay: hMAO B inhibition, fluorometric Amplex Red MAO assay
Type: biochemical
condition-set: percent of inhibition at 1 μM; mean of two independent experiments; read-out: MAO B (%Inh.)
Entries and their measured inhibition at 1 µM follow.
A number alone suffices; assume %.

CC(C)(C)c1ccc(OCCCCCN2CCCCC2)cc1.O=C(O)C(=O)O: 28
CC1CC(C)CN(CCCCCOc2ccc(C(C)(C)C)cc2)C1.O=C(O)C(=O)O (stereo not shown): 41
CC(C)(C)c1ccc(OCCCCCCN2CCCCCC2)cc1.O=C(O)C(=O)O: 23

GET /value?item= `CC1CCN(CCCCOc2ccc(C(C)(C)C)cc2)CC1` &field=inhibition at 1 µM returns 33

GET /value?item= `CC1(C)CCCN(CCCCOc2ccc(C(C)(C)C)cc2)C1.O=C(O)C(=O)O` &field=inhibition at 1 µM returns 38

GET /value?item= CC1CCCN(CCCCCCOc2ccc(C(C)(C)C)cc2)C1.O=C(O)C(=O)O (stereo not shown) &field=inhibition at 1 µM returns 13

GET /value?item= CC1CC(C)CN(CCCCCCOc2ccc(C(C)(C)C)cc2)C1.O=C(O)C(=O)O (stereo not shown) &field=inhibition at 1 µM returns 34

====

Entries and their measured log10 of Ki follow.
test-target: human histamine H3 receptor (hH3R) (Homo sapiens, UniProt Q9Y5N1)
Construct: expressed in transfected cells
assay: radioligand displacement binding assay, [3H]Nα-methylhistamine, HEK293 cells stably expressing hH3R
condition-set: HEK293 cells stably expressing human H3R, mean (95% CI)
Values below are the log10 of the recorded Ki, with nM as the unit.

CC(C)(C)c1ccc(OCCCCN2CCCCC2)cc1.O=C(O)C(=O)O: 2.49

GET /value?item= `CC(C)(C)c1ccc(OCCCN2CCCC2)cc1.O=C(O)C(=O)O` &field=log10 of Ki returns 2.57

GET /value?item= CC1CC(C)CN(CCCCOc2ccc(C(C)(C)C)cc2)C1.O=C(O)C(=O)O (centres unmarked) &field=log10 of Ki returns 3.14

GET /value?item= `CC(C)(C)c1ccc(OCCCCCN2CCCCC2)cc1.O=C(O)C(=O)O` &field=log10 of Ki returns 2.40

====

assay-endpoint: melting point

Examples from the recorded data:
CC1CCN(CCCOc2ccc(C(C)(C)C)cc2)CC1.O=C(O)C(=O)O [Compound 24]: 158 to 160 °C
CC1(C)CCCN(CCCCCCOc2ccc(C(C)(C)C)cc2)C1.O=C(O)C(=O)O [Compound 19]: 122 to 125 °C
CC1CCCN(CCCCCCOc2ccc(C(C)(C)C)cc2)C1.O=C(O)C(=O)O (centres unmarked) [Compound 15]: 140 to 142 °C

GET /value?item= CC1CCCCN1CCCCOc1ccc(C(C)(C)C)cc1.O=C(O)C(=O)O (centres unmarked) [Compound 10] &field=melting point returns 107 to 110 °C

GET /value?item= CC(C)(C)c1ccc(OCCCCN2CCCCC2)cc1.O=C(O)C(=O)O [Compound 6] &field=melting point returns 150 to 152 °C

====

test-target: human histamine H3 receptor (hH3R) (Homo sapiens)
Construct: expressed in transfected cells
assay: radioligand displacement binding assay, [3H]Nα-methylhistamine, HEK293 cells stably expressing hH3R
condition-set: HEK293 cells stably expressing human H3R, mean (95% CI)
assay-endpoint: Ki (nM)
A number alone suffices; assume nM.

Examples from the recorded data:
CC1CCN(CCCOc2ccc(C(C)(C)C)cc2)CC1.O=C(O)C(=O)O [Compound 24]: 316
CC(C)(C)c1ccc(OCCCCN2CCCCCC2)cc1.O=C(O)C(=O)O [Compound 29]: 299
CC1(C)CCCN(CCCCOc2ccc(C(C)(C)C)cc2)C1.O=C(O)C(=O)O [Compound 17]: 3440

Bench note, human histamine H3 receptor (hH3R) (Homo sapiens): CC1CCCN(CCCCOc2ccc(C(C)(C)C)cc2)C1.O=C(O)C(=O)O (stereo not shown) [Compound 13] , Ki reads 102
